What inhibition at 10 µM was measured for each of the following?
Target: human SGLT2 (Homo sapiens, UniProt P31639)
Construct: expressed in transfected cells
Sequence (P31639 whole entry): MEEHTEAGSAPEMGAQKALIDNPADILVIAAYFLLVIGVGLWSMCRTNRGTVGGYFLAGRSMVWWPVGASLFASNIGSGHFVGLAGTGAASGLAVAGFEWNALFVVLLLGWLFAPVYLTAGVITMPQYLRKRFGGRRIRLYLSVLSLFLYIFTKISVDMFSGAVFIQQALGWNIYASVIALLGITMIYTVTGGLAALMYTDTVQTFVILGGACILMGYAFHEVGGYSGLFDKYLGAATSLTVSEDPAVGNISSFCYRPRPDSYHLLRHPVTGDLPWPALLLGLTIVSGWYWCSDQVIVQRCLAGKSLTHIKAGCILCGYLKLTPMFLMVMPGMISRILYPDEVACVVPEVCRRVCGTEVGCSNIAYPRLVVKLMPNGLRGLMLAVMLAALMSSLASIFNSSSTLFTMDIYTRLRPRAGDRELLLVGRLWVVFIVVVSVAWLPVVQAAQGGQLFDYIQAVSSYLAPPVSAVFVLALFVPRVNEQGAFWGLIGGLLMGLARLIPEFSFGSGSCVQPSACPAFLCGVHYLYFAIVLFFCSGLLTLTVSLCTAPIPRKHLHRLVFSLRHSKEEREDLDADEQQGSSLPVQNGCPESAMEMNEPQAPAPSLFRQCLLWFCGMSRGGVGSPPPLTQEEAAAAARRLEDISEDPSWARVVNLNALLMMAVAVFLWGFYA
Assay: Cell-based assay for sodium-dependent glucose transport (14C-AMG uptake), CHOK-SGLT2
Details: CHO-K1; read-out: CHOK-SGLT2 % Inh. @ 10 μM
One number for each entry, in %.

Some compounds with recorded inhibition at 10 µM:
- compound: "CC(=O)OC[C@H]1O[C@@H](Oc2cc(C)cc3[nH]nc(CCc4ccc5c(c4)CCO5)c23)[C@H](O)[C@@H](O)[C@@H]1O"
  inhibition at 10 µM [%]: 69
- compound: "Cc1cc(OC2OC(CO)C(O)C(O)C2O)c2c(CCc3ccc(NS(C)(=O)=O)cc3)n[nH]c2c1 (stereo not drawn)"
  inhibition at 10 µM [%]: 42
- compound: "Cc1cc(OC2OC(CO)C(O)C(O)C2O)c2c(CCc3ccc(Cl)cc3)n[nH]c2c1 (stereo not drawn)"
  inhibition at 10 µM [%]: 66

Provide reported inhibition at 10 µM for each item, in the same order as listed.
1. Cc1cc(OC2OC(CO)C(O)C(O)C2O)c2c(CCc3ccc(C(F)(F)F)cc3)n[nH]c2c1 (stereo not drawn)
2. COc1ccc2c(c1)CCC(CCc1n[nH]c3cc(C)cc(OC4OC(CO)C(O)C(O)C4O)c13)C2 (stereo not drawn)
3. Cc1cc(OC2OC(CO)C(O)C(O)C2O)c2c(CCC3CCCCC3)n[nH]c2c1 (stereo not drawn)
4. COC1CCc2cc(CCc3n[nH]c4cc(C)cc(OC5OC(CO)C(O)C(O)C5O)c34)ccc2C1 (stereo not drawn)
5. Cc1cc(O[C@@H]2O[C@H](CO)[C@@H](O)[C@H](O)[C@H]2O)c2c(Cc3ccc4c(c3)CCO4)n[nH]c2c1
6. COc1ccc(SCc2n[nH]c3cccc(OC4OC(CO)C(O)C(O)C4O)c23)cc1 (stereo not drawn)

Ans.
36
67
67
43
40
64
